For each entry below, report its Activity value.
tested on: Trypanosoma cruzi; assay: Inhibition of PFK in Trypanosoma cruzi IRHOD/CO/2008/SN3 epimastigotes assessed as change in D-lactate excretion at IC25 after 96 hrs by 1H NMR analysis relative to control; design: scale not given: the % may be the effect or the level left
One number for each entry, in %.

Examples with their reported Activity follow.
# smilesNotation, parameterMeasured, unitSymbol, numericReadout
measured = [
    ("CC(=O)Nc1ccc(S(=O)(=O)n2cnc3ccccc32)cc1", "Activity", "%", 25.5),
    ("O=[N+]([O-])c1cccc(S(=O)(=O)n2cnc3ccccc32)c1", "Activity", "%", -3.97),
    ("Cc1cc(C)c(C)c(S(=O)(=O)n2cnc3ccccc32)c1C", "Activity", "%", 26.4),
    ("O=S(=O)(c1ccc(C(F)(F)F)cc1)n1cnc2ccccc21", "Activity", "%", 25.8),
]

Now turn to the next compound.
Kindly note: Trypanosoma cruzi, O=S(=O)(c1ccccc1)n1cnc2ccccc21 , Activity value reported: 16.4

* * *

For each entry below, report its log10 IC50 value.
test system: Vero; experiment: Cytotoxicity against African green monkey Vero cells after 72 hrs by propidium iodide/fluorescein diacetate staining based flow cytometry; format: cell-based; details: Chlorocebus sabaeus
Scale: decimal log of IC50, IC50 in µM.

Examples with their reported log10 IC50 follow.
# smilesNotation, targetUnderTest, parameterMeasured, numericReadout
measured = [
    ("O=S(=O)(c1ccc(Cl)cc1)n1cnc2ccccc21", "Vero", "log10 IC50", 2.09),
    ("O=S(=O)(c1ccccc1)n1cnc2ccccc21", "Vero", "log10 IC50", 3.25),
    ("Cc1ccc(S(=O)(=O)n2cnc3ccccc32)cc1", "Vero", "log10 IC50", 2.03),
    ("O=[N+]([O-])c1cccc(S(=O)(=O)n2cnc3ccccc32)c1", "Vero", "log10 IC50", 2.81),
    ("CC(C)(C)c1ccc(S(=O)(=O)n2cnc3ccccc32)cc1", "Vero", "log10 IC50", 1.84),
    ("Cc1cc(C)c(C)c(S(=O)(=O)n2cnc3ccccc32)c1C", "Vero", "log10 IC50", 2.31),
    ("CC(=O)c1ccc(S(=O)(=O)n2cnc3ccccc32)cc1", "Vero", "log10 IC50", 2.82),
    ("O=[N+]([O-])c1ccccc1S(=O)(=O)n1cnc2ccccc21", "Vero", "log10 IC50", 2.08),
]

Hi there! I need log10 IC50 for each item below, if you can.
1. CC(=O)Nc1ccc(S(=O)(=O)n2cnc3ccccc32)cc1
2. O=S(=O)(c1ccc(C(F)(F)F)cc1)n1cnc2ccccc21
3. O=S(=O)(c1ccc(Br)cc1)n1cnc2ccccc21
4. O=S(=O)(c1cccc(C(F)(F)F)c1)n1cnc2ccccc21
5. O=[N+]([O-])c1ccc(S(=O)(=O)n2cnc3ccccc32)cc1

Response line:
1: 2.67; 2: 2.66; 3: 3.08; 4: 1.78; 5: 2.54

* * *

experiment: Inhibition of Trypanosoma cruzi holoenzyme form of PFK
parameterMeasured: pIC50
Give bare numbers.

# smilesNotation, pIC50
measured = [
    ("Cc1cc(NS(=O)(=O)c2ccc(NC(=O)Cc3ccc(Cl)c(F)c3)cc2)no1", 2.81),
    ("O=C(Cc1ccc(Cl)c(Cl)c1)Nc1ccc(S(=O)(=O)Nc2cc[nH]n2)cc1", 2.86),
    ("Cc1cc(NS(=O)(=O)c2ccc(NC(=O)Cc3ccc(C)c(F)c3)cc2)no1", 3.81),
    ("Cc1cc(NS(=O)(=O)Cc2ccc(NC(=O)Cc3ccc(Cl)c(Cl)c3)cc2)no1", 3.66),
    ("Cc1cc(NS(=O)(=O)c2ccc(NC(=O)Cc3ccc(Cl)c(C(F)(F)F)c3)cc2)no1", 2.86),
]

Hi there! I need pIC50 for each item below, if you can.
1. Cc1cc(NS(=O)(=O)C2CCN(C(=O)Cc3ccc(Cl)c(Cl)c3)CC2)no1
2. Cc1cc(N(C)S(=O)(=O)c2ccc(NC(=O)Cc3ccc(Cl)c(Cl)c3)cc2)no1
3. CN(C)c1cccc(NS(=O)(=O)c2ccc(NC(=O)Cc3ccc(Cl)c(Cl)c3)cc2)c1

Response line:
[4.16, 3.41, 4.11]

Hi there! I need pIC50 for each item below, if you can.
1. Cc1cc(NS(=O)(=O)c2ccc(NC(=O)Cc3ccc(F)c(Cl)c3)cc2)no1
2. Cc1cc(NS(=O)(=O)c2ccc(NC(=O)Cc3cccc(Cl)c3)cc2)no1
3. O=C(Cc1ccc(F)c(Cl)c1)Nc1ccc(S(=O)(=O)Nc2nncs2)cc1
4. Cc1cc(NS(=O)(=O)c2ccc(N(C)C(=O)Cc3ccc(Cl)c(Cl)c3)cc2)no1

Response line:
[2.66, 3.46, 2.23, 3.06]

Hi there! I need pIC50 for each item below, if you can.
1. O=C(Cc1ccc(Cl)c(Cl)c1)Nc1ccc(S(=O)(=O)Nc2ccccc2)cc1
2. Cc1cc(NS(=O)(=O)c2ccc(NC(=O)Cc3ccc(Cl)cc3Cl)cc2)no1
3. O=C(Cc1ccc(Cl)c(Cl)c1)Nc1ccc(S(=O)(=O)Nc2nccs2)cc1
4. Cc1cc(NS(=O)(=O)c2ccc(NC(=O)c3ccc(Cl)c(Cl)c3)cc2)no1
5. O=C(Cc1ccc(Cl)c(Cl)c1)Nc1ccc(S(=O)(=O)Nc2cccc(O)c2)cc1

Response line:
1. 4.21
2. 4.21
3. 1.61
4. 4.31
5. 3.16

Hi there! I need pIC50 for each item below, if you can.
1. O=C(Cc1ccc(Cl)c(Cl)c1)Nc1ccc(S(=O)(=O)Nc2ccon2)cc1
2. Cc1cc(NS(=O)(=O)c2ccc(NC(=O)Cc3ccc(Cl)c(Cl)c3)cc2)n(C)n1
3. Cc1cc(NS(=O)(=O)c2ccc(NC(=O)C(C)(C)c3ccc(Cl)c(Cl)c3)cc2)no1
4. Cc1cc(NS(=O)(=O)c2ccc(NCCc3ccc(Cl)c(Cl)c3)cc2)no1
5. O=C(Cc1ccc(Cl)c(Cl)c1)Nc1ccc(S(=O)(=O)Nc2nncs2)cc1
6. Cc1cc(NS(=O)(=O)c2ccc(NC(=O)Cc3ccc(Cl)cc3)cc2)no1

Response line:
[2.11, 2.96, 4.56, 4.21, 1.72, 3.11]

Hi there! I need pIC50 for each item below, if you can.
1. Cc1cc(NS(=O)(=O)c2ccc(NC(=O)Cc3ccc4ccccc4c3)cc2)no1
2. Cc1cc(NS(=O)(=O)c2ccc(NC(=O)Cc3ccc(Cl)c(Cl)c3)cc2)no1
3. O=C(Cc1ccc(F)c(Cl)c1)Nc1ccc(S(=O)(=O)Nc2nccs2)cc1
4. Cc1cc(NS(=O)(=O)c2ccc(NC(=O)Cc3ccccc3)cc2)no1

Response line:
3.26
2.36
2.07
4.31

Hi there! I need pIC50 for each item below, if you can.
1. COc1ccc(CC(=O)Nc2ccc(S(=O)(=O)Nc3cc(C)on3)cc2)cc1C
2. Cc1cc(NS(=O)(=O)c2ccc(NC(=O)CCc3ccc(Cl)c(Cl)c3)cc2)no1
3. Cc1cc(NS(=O)(=O)c2cccc(NC(=O)Cc3ccc(Cl)c(Cl)c3)c2)no1
4. Cc1cc(NS(=O)(=O)c2ccc(NC(=O)Cc3ccc(C)c(C)c3)cc2)no1
5. Cc1cc(NS(=O)(=O)c2ccc(C(=O)NCc3ccc(Cl)c(Cl)c3)cc2)no1

Response line:
1. 4.31
2. 4.06
3. 4.21
4. 3.81
5. 3.51

* * *

test: Inhibition of Trypanosoma cruzi apoenzyme form of PFK
parameterMeasured: pIC50
One number for each entry.

Examples with their reported pIC50 follow.
# smilesNotation, pIC50
data = [
    ("Cc1cc(NS(=O)(=O)C2CCN(C(=O)Cc3ccc(Cl)c(Cl)c3)CC2)no1", 4.16),
    ("O=[N+]([O-])c1cccc(S(=O)(=O)n2cnc3ccccc32)c1", 3.66),
    ("Cc1cc(N(C)S(=O)(=O)c2ccc(NC(=O)Cc3ccc(Cl)c(Cl)c3)cc2)no1", 3.41),
]

Hi there! I need pIC50 for each item below, if you can.
1. Cc1cc(NS(=O)(=O)c2ccc(NC(=O)Cc3ccc(Cl)c(C(F)(F)F)c3)cc2)no1
2. O=S(=O)(c1ccc(C(F)(F)F)cc1)n1cnc2ccccc21
3. O=[N+]([O-])c1ccccc1S(=O)(=O)n1cnc2ccccc21
4. O=C(Cc1ccc(Cl)c(Cl)c1)Nc1ccc(S(=O)(=O)Nc2ccccc2)cc1
5. Cc1cc(NS(=O)(=O)c2ccc(NC(=O)Cc3ccc(C)c(F)c3)cc2)no1
6. Cc1cc(NS(=O)(=O)c2ccc(NC(=O)c3ccc(Cl)c(Cl)c3)cc2)no1
7. Cc1cc(NS(=O)(=O)c2cccc(NC(=O)Cc3ccc(Cl)c(Cl)c3)c2)no1

Response line:
2.96
3.79
3.74
4.21
3.81
4.31
4.21

Attribution: ChEMBL document CHEMBL4480385
